Here, each record is paired with measured Papp data.
PROTOCOL: Permeability (Papp) Caco-2 A>B
Format: in vitro ADME
RUN PARAMETERS: human, apical (A) to basolateral (B) direction
Value and unit, in that order.

Some compounds with known Papp results, for comparison:
OC[C@H]1O[C@H](Sc2ccc(Cl)c(Cl)c2)[C@H](O)[C@@H](n2cc(-c3ccsc3)nn2)[C@H]1O	10.1 ×10⁻⁶ cm/s
OC[C@H]1O[C@H](Sc2cc(Cl)c(F)c(Cl)c2)[C@H](O)[C@@H](n2cc(-c3cscn3)nn2)[C@H]1O	8.8 ×10⁻⁶ cm/s
OC[C@H]1O[C@H](Sc2cnc(C(F)(F)F)c(Br)c2)[C@H](O)[C@@H](n2cc(-c3ccsc3)nn2)[C@H]1O	2.5 ×10⁻⁶ cm/s

Here is another compound to look at.
Query: Which Papp is reported for this compound? OCC1O[C@H](Sc2cc(Cl)c(F)c(Cl)c2)C(O)[C@@H](n2cc(-c3nccs3)nn2)[C@H]1O (stereo partly shown)
Reply: 10.5 ×10⁻⁶ cm/s

---

Here, each record is paired with measured Kd data.
TGT: Galectin-1 (Homo sapiens (Human), UniProt P09382)
Sequence (P09382 whole entry): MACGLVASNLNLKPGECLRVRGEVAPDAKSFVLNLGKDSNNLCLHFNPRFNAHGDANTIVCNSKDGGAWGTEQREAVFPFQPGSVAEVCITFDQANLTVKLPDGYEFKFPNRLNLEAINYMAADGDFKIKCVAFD
PROTOCOL: Fluorescence anisotropy assay, compound as inhibitor of galectin / fluorescein tagged saccharide probe interaction
Format: binding
Number only, in nM; omit the unit.

Some molecules with known Kd results, for comparison:
OC[C@H]1O[C@H](Sc2ccc(Cl)c(Cl)c2)[C@H](O)[C@@H](n2cc(-c3nccs3)nn2)[C@H]1O [Example 18]	240
OCC1O[C@H](Sc2ccc(Cl)c(Cl)c2)C(O)[C@@H](n2cc(-c3nc(Br)cs3)nn2)[C@H]1O (stereo partly drawn) [Example 29]	150

Here is another molecule to look at.
Query: Which Kd is reported for this molecule? OC[C@H]1O[C@H](Sc2ccc(F)c(Br)c2)[C@H](O)[C@@H](n2cc(-c3nccs3)nn2)[C@H]1O [Example 27]
Reply: 490

---

TGT: Galectin-3 (Homo sapiens (Human))
Sequence (P17931 whole entry): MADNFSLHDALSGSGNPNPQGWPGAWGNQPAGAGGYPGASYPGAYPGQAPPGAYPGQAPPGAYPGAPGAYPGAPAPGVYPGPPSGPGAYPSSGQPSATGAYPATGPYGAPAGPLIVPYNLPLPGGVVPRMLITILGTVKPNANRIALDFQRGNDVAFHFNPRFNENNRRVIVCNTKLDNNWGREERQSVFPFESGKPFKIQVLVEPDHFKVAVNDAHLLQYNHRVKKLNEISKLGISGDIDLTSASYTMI
PROTOCOL: Fluorescence anisotropy assay, compound as inhibitor of galectin / fluorescein tagged saccharide probe interaction
PARAMETER: Kd (µM)
Number only, in µM; omit the unit.

Some compounds with known Kd results, for comparison:
N#Cc1c(Cl)cc(S[C@H]2OC(CO)[C@H](O)[C@H](n3cc(-c4nccs4)nn3)C2O)cc1Cl (stereo partly drawn) [Example 16]	12
N#Cc1cc(F)c(S[C@H]2OC(CO)[C@H](O)[C@H](n3cc(-c4ccsc4)nn3)C2O)cc1Cl (stereo partly drawn) [Example 2]	1.95

Here is another compound to look at.
Query: Which Kd is reported for this compound? OC[C@H]1O[C@H](Sc2cc(Cl)c(Cl)c(Cl)c2)[C@H](O)[C@@H](n2cc(-c3nncs3)nn2)[C@H]1O [Example 19]
Reply: 4.4

---

PROTOCOL: Human hepatic stability (CLint) in human hepatocytes
Format: in vitro ADME
RUN PARAMETERS: * = no degradation observed under the assay conditions
Here, each record is paired with measured CLint scaled data.

Some compounds with known CLint scaled results, for comparison:
OC[C@H]1O[C@H](Sc2ccc(Cl)c(Cl)c2)[C@H](O)[C@@H](n2cc(-c3ccsc3)nn2)[C@H]1O	12.1 mL/min/kg
OC[C@H]1O[C@H](Sc2cnc(C(F)(F)F)c(Br)c2)[C@H](O)[C@@H](n2cc(-c3ccsc3)nn2)[C@H]1O	11.3 mL/min/kg

Here is another compound to look at.
Query: Which CLint scaled is reported for this compound? OCC1O[C@H](Sc2cc(Cl)c(F)c(Cl)c2)C(O)[C@@H](n2cc(-c3nccs3)nn2)[C@H]1O (stereo partly drawn)
Reply: 0.38 mL/min/kg
